Lab note: Ki readings collected with Adenosine A2 receptor (Rattus norvegicus, UniProt P29276+P30543) for the following compounds.

{"COMPOUND": "CCCCCCCCc1nc(N)c2ncn(C3O[C@H](CO)[C@@H](O)[C@H]3O)c2n1 (stereo partly specified)", "Ki": "> 567 nM"}
{"COMPOUND": "CCCCOCC#Cc1nc(N)c2ncn([C@@H]3O[C@H](CO)[C@@H](O)[C@H]3O)c2n1", "Ki": "10.6 nM"}
{"COMPOUND": "Nc1nc(Nc2ccccc2)nc2c1ncn2[C@@H]1O[C@H](CO)[C@@H](O)[C@H]1O", "Ki": "107 nM"}
{"COMPOUND": "CCCCCCC#Cc1nc(N)c2ncn([C@@H]3O[C@H](CO)[C@@H](O)[C@H]3O)c2n1", "Ki": "12.1 nM"}

Item: CCCCCCC#Cc1nc2c(N)ncnc2n1C1O[C@H](CO)[C@@H](O)[C@H]1O (stereo partly specified) | System: Adenosine A2 receptor (Rattus norvegicus, UniProt P29276+P30543) | Ki: > 567 nM

Item: CCc1nc(N)c2ncn(C3O[C@H](CO)[C@@H](O)[C@H]3O)c2n1 (stereo partly specified) | System: Adenosine A2 receptor (Rattus norvegicus, UniProt P29276+P30543) | Ki: > 567 nM

Item: `COCC#Cc1nc(N)c2ncn([C@@H]3O[C@H](CO)[C@@H](O)[C@H]3O)c2n1` | System: Adenosine A2 receptor (Rattus norvegicus, UniProt P29276+P30543) | Ki: 88.1 nM

Item: `OC[C@H]1O[C@@H](n2cnc3c(NC4CCCC4)ncnc32)[C@H](O)[C@@H]1O` | System: Adenosine A2 receptor (Rattus norvegicus, UniProt P29276+P30543) | Ki: 421 nM

Item: `CCCC#Cc1nc(N)c2ncn([C@@H]3O[C@H](CO)[C@@H](O)[C@H]3O)c2n1` | System: Adenosine A2 receptor (Rattus norvegicus, UniProt P29276+P30543) | Ki: 7.5 nM

Item: `Nc1nc(C#CCCO)nc2c1ncn2[C@@H]1O[C@H](CO)[C@@H](O)[C@H]1O` | System: Adenosine A2 receptor (Rattus norvegicus, UniProt P29276+P30543) | Ki: 40.1 nM

Item: `CCCCCC#Cc1nc(N)c2ncn([C@@H]3O[C@H](CO)[C@@H](O)[C@H]3O)c2n1` | System: Adenosine A2 receptor (Rattus norvegicus, UniProt P29276+P30543) | Ki: 5.4 nM
